Molecular target: human orexin-2 receptor (Homo sapiens (Human), UniProt O43614)
Sequence (O43614 whole entry): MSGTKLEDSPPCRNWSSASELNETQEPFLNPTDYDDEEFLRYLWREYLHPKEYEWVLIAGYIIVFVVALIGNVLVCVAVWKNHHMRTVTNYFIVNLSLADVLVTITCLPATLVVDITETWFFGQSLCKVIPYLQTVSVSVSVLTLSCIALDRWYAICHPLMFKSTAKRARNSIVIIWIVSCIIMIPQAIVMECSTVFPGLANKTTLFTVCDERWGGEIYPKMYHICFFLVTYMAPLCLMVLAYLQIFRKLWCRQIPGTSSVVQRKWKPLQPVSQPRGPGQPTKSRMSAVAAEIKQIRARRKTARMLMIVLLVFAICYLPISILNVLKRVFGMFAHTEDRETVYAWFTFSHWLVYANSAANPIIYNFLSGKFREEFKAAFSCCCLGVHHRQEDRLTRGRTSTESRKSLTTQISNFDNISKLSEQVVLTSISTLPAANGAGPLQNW
Experiment: In vitro assay: intracellular calcium measurements (FLIPR), antagonistic activity
Conditions: CHO cells expressing human orexin-2 receptor, orexin-A agonist, geometric mean, read-out: IC50 Ox2
// values below are reported IC50
measure: IC50 (µM)

INSERT INTO results (compound, measure, unitsofmeasure, recordednumber) VALUES
  ('C=C1CN(C(=O)c2nc(C)sc2-c2ccc(OC)cc2)C(C)(c2nc3cc(OC)ccc3[nH]2)C1 (stereo not shown)', 'IC50', 'µM', 0.034),
  ('C=C1C[C@@H](c2nc3cc(OC)ccc3[nH]2)N(C(=O)c2cc(C)ccc2-n2nccn2)C1', 'IC50', 'µM', 0.006),
  ('Cc1c(Cl)ccc2[nH]c([C@]3(C)CCCN3C(=O)c3cc(F)ccc3-n3nccn3)nc12', 'IC50', 'µM', 0.012),
  ('COc1cc2nc([C@]3(C)CCCN3C(=O)c3nc(C)sc3-c3ccc(Cl)cc3)[nH]c2cc1OC', 'IC50', 'µM', 0.097);

---

// values below are reported IC50
Molecular target: human orexin-1 receptor (Homo sapiens (Human), UniProt O43613)
Sequence (O43613 whole entry): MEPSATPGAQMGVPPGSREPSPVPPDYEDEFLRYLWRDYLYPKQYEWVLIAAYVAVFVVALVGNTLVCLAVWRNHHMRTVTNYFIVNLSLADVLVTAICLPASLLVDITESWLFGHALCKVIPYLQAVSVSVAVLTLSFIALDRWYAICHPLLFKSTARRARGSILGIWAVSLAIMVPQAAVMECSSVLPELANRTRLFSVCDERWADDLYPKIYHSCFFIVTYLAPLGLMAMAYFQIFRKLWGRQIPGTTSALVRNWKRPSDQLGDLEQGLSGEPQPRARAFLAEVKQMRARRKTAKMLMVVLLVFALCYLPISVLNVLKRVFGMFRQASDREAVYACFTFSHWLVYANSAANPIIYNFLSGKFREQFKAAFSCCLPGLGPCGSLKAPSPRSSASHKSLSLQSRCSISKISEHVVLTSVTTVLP
Test: In vitro assay: intracellular calcium measurements (FLIPR), antagonistic activity
Conditions: CHO cells expressing human orexin-1 receptor, orexin-A agonist, geometric mean, read-out: IC50 Ox1
measure: IC50 (nM)

INSERT INTO assay_data (itemsmiles, targetdesc, measure, unitsofmeasure, recordednumber) VALUES
  ('CSc1ccc2[nH]c([C@@H]3CCCN3C(=O)c3ccccc3-n3cccn3)nc2c1', 'human orexin-1 receptor (Homo sapiens (Human), UniProt O43613)', 'IC50', 'nM', 2190),
  ('COc1cc2nc([C@]3(C)CCCN3C(=O)c3cnc(C)nc3-c3cccc(C)c3)[nH]c2cc1OC', 'human orexin-1 receptor (Homo sapiens (Human), UniProt O43613)', 'IC50', 'nM', 148),
  ('C=C1C[C@@H](c2nc3ccc(Cl)c(C)c3[nH]2)N(C(=O)c2nc(C)sc2-c2ccc(OC)nc2)C1', 'human orexin-1 receptor (Homo sapiens (Human), UniProt O43613)', 'IC50', 'nM', 19),
  ('CO[C@@H]1C[C@@H](c2nc3ccc(Cl)c(C)c3[nH]2)N(C(=O)c2c(C)cccc2-n2nccn2)C1', 'human orexin-1 receptor (Homo sapiens (Human), UniProt O43613)', 'IC50', 'nM', 674);

---

Biological target: human orexin-1 receptor (Homo sapiens (Human), UniProt O43613)
Experiment: In vitro assay: intracellular calcium measurements (FLIPR), antagonistic activity
Settings: CHO cells expressing human orexin-1 receptor, orexin-A agonist, geometric mean, read-out: IC50 Ox1
// values below are reported IC50
measure: IC50 (nM)

INSERT INTO results (compound, recordednumber) VALUES
  ('C=C1C[C@@H](c2nc3c(C)c(Cl)ccc3[nH]2)N(C(=O)c2nc(C)sc2-c2ccc(C)c(C)c2)C1 [Ex. 6.54]', 3),
  ('COc1cc2nc([C@@H]3[C@@H](C)CCN3C(=O)c3ccc(C)cc3-n3nccn3)[nH]c2cc1OC [Ex. 4.46]', 14),
  ('Cc1nc(C(=O)N2CC[C@H](C)[C@H]2c2nc3cccc(C)c3[nH]2)c(-c2cccc(Cl)c2)s1 [Ex. 4.7]', 2),
  ('Cc1c(Cl)ccc2[nH]c([C@]3(C)CCCN3C(=O)c3c(F)cccc3-n3nccn3)nc12 [Ex. 5.48]', 12),
  ('CO[C@H]1C[C@@H](c2nc3c(C)c(Cl)ccc3[nH]2)N(C(=O)c2nc(C)sc2-c2ccccc2)C1 [Ex. 3.5]', 109),
  ('C=C1CC(c2nc3cc(C(C)(C)C)ccc3[nH]2)N(C(=O)c2cc(C)sc2-c2ccc(C)c(C)c2)C1 (stereo not drawn) [Ex. 6.81]', 19),
  ('C=C1CN(C(=O)c2ccccc2-n2nccn2)C(C)(c2nc3cc(OC)ccc3[nH]2)C1 (stereo not drawn) [Ex. 6.155]', 649),
  ('Cc1c(Cl)ccc2[nH]c([C@]3(C)CCCN3C(=O)c3nc(-c4cccc(F)c4F)sc3-c3ccc(F)cc3)nc12 [Ex. 5.251]', 13),
  ('COc1ccccc1-c1ccc(C)cc1C(=O)N1CCC[C@@]1(C)c1nc2cc(C)c(C)cc2[nH]1 [Ex. 5.92]', 62),
  ('Cc1ccccc1-c1nc(C(=O)N2CCC[C@@]2(C)c2nc3cc(Cl)c(C(F)(F)F)cc3[nH]2)c(-c2ccc(F)cc2)s1 [Ex. 5.286]', 40),
  ('Cc1c(Cl)ccc2[nH]c([C@@H]3[C@@H](C)CCN3C(=O)c3cc(Cl)ccc3-c3ccccc3)nc12 [Ex. 4.162]', 2),
  ('COc1ccc(-c2ccc(F)cc2)c(C(=O)N2CCC[C@@]2(C)c2nc3ccc(Cl)c(C)c3[nH]2)c1F [Ex. 5.299]', 17),
  ('CO[C@H]1CN(C(=O)c2nc(C)sc2-c2ccccc2)C(C)(c2nc3c(C)cccc3[nH]2)C1 (stereo partly drawn) [Ex. 3.29]', 28),
  ('Cc1nc(C(=O)N2CCC[C@@]2(C)c2nc3c(C)c(Cl)ccc3[nH]2)c(-c2ccccc2)s1 [Ex. 5.3]', 2),
  ('Cc1cc2[nH]c([C@@H]3[C@@H](C)CCN3C(=O)c3cc(C(F)(F)F)ccc3-c3ccccc3)nc2cc1Cl [Ex. 4.114]', 33),
  ('COc1cc2nc([C@@H]3[C@@H](C)CCN3C(=O)c3nc(C)sc3-c3cc(F)cc(F)c3)[nH]c2cc1OC [Ex. 4.52]', 19),
  ('C=C1C[C@@H](c2nc3ccc(Cl)c(C)c3[nH]2)N(C(=O)c2c(-n3nccn3)ccc(C)c2F)C1 [Ex. 6.132]', 13),
  ('Cc1ccc(-c2nc(C(=O)N3CCC[C@@]3(C)c3nc4c(C)c(Cl)ccc4[nH]3)c(-c3ccc(F)cc3)s2)cc1C [Ex. 5.254]', 39),
  ('COc1cc2nc([C@]3(C)CCCN3C(=O)c3nc(C)sc3-c3cc(F)cc(F)c3)[nH]c2cc1OC [Ex. 5.76]', 33),
  ('COc1ccc2nc([C@@H]3CCCN3C(=O)c3cc(Cl)ccc3-n3nccn3)[nH]c2c1 [Ex. 1.157]', 419),
  ('COc1cc2nc([C@]3(C)CCCN3C(=O)c3sc(C)nc3-c3ccc(C)cc3)[nH]c2cc1OC [Ex. 5.75]', 300),
  ('CSc1ccc2nc([C@@H]3CCCN3C(=O)c3ccccc3-n3nccn3)[nH]c2c1 [Ex. 1.47]', 446),
  ('COc1ccc(-c2sc(C)nc2C(=O)N2CCC[C@@]2(C)c2nc3cc(OC)c(OC)cc3[nH]2)cn1 [Ex. 5.77]', 64),
  ('C[C@@]1(c2nc3c(F)c(F)ccc3[nH]2)CCCN1C(=O)c1cc(Cl)ccc1-n1nccn1 [Ex. 5.200]', 115),
  ('CCn1c([C@]2(C)CCCN2C(=O)c2nc(C)sc2-c2cccc(Cl)c2)nc2c(C)cccc21 [Ex. 7.6]', 5),
  ('C[C@@]1(c2nc3cc(C(F)(F)F)ccc3[nH]2)CCCN1C(=O)c1cc(OC(F)(F)F)ccc1-n1nccn1 [Ex. 5.173]', 290),
  ('CSc1ccc2[nH]c([C@@H]3CCCN3C(=O)c3nc(C)sc3-c3cccc(Cl)c3)nc2c1 [Ex. 1.15]', 67),
  ('Cc1ccc(-n2nccn2)c(C(=O)N2CC[C@H](C)[C@H]2c2nc3c(C(C)C)cccc3[nH]2)c1 [Ex. 4.38]', 55),
  ('COc1cc2nc([C@@H]3[C@@H](C)CCN3C(=O)c3ccccc3-n3nccn3)[nH]c2cc1OC [Ex. 4.49]', 221),
  ('C=C1C[C@@H](c2nc3cc(C(C)(C)C)ccc3[nH]2)N(C(=O)c2cc(C)c(C)cc2-n2nccn2)C1 [Ex. 6.165]', 9);

---

// values below are reported pIC50
Target: human orexin-2 receptor (Homo sapiens (Human), UniProt O43614)
Test: In vitro assay: intracellular calcium measurements (FLIPR), antagonistic activity
Conditions: CHO cells expressing human orexin-2 receptor, orexin-A agonist, geometric mean, read-out: IC50 Ox2
Description: In Vitro Assay: Intracellular Calcium Measurements: […] Within the Fluorescent Imaging Plate Reader (FLIPR Tetra, Molecular Devices), antagonists are added to the plate in a volume of 10 μl/well, incubated for 120 min and finally 10 μl/well of agonist is added. […] The calculated IC50 values may fluctuate depending on the daily cellular assay performance. […]
pIC50: −log10 of the molar value.
measure: pIC50

INSERT INTO results (itemsmiles, recordednumber) VALUES
  ('COc1ccc2nc([C@@H]3C[C@@H](OC)CN3C(=O)c3cc(Cl)ccc3-n3nccn3)[nH]c2c1', 7.68),
  ('Cc1ccc(-n2nccn2)c(C(=O)N2CCC[C@@]2(C)c2nc3c(F)c(F)ccc3[nH]2)n1', 6.07),
  ('COc1cccc(-c2ccc(C)cc2C(=O)N2CCC[C@@]2(C)c2nc3cc(C)c(C)cc3n2CCF)c1', 7.57),
  ('C=C1C[C@@H](c2nc3ccc(OC)cc3[nH]2)N(C(=O)c2nc(C)sc2-c2ccc(C)c(C)c2)C1', 8.40);
